Kindly supply the reported Activity values for the records listed here.
target: Core antigen (Hepatitis B virus) (UniProt Q03732); experiment: Inhibition of capsid protein in HBV infected in human HepDES19 cells assessed as inhibition of viral replication by measuring minus polarity DNA level at 20 uM incubated for 3 days by strand preferential qPCR analysis relative to control; format: cell-based; design: scale not given: the % may be the effect or the level left; details: time 3.0 day
Sequence (Q03732 as listed by the source): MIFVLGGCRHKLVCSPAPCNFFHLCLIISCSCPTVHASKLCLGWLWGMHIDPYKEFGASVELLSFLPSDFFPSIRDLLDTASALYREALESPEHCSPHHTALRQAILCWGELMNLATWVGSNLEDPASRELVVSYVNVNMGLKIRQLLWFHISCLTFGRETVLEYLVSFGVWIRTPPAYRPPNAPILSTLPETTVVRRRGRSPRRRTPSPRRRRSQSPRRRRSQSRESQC
Dear colleague, please return just the value in %, with no unit written.

Task: Report Activity for Nc1ccn([C@@H]2CS[C@H](CO)O2)c(=O)n1 [LAMIVUDINE] please.
Result: 11.8

Task: // query: CCOC(=O)C1=C(CN2CC3(CC2=O)CN(C(=O)OC(C)(C)C)C3)NC(c2nccs2)=NC1c1ccc(F)cc1Br (stereo not given)
Result: 1.8

Task: Quick one: CCOC(=O)C1=C(CN2CC3(CNC3)CC2=O)NC(c2nccs2)=NC1c1ccc(F)cc1Br (stereo not given)
Result: 85.3

Task: // next record CCOC(=O)C1=C(CN2CCC3(CCNC3)CC2)NC(c2nccs2)=NC1c1ccc(F)cc1Br (stereo not given)
Result: 99.6

Task: Try CCOC(=O)C1=C(CN2CCC3(C2)CN(C(=O)OC(C)(C)C)C3)NC(c2nccs2)=NC1c1ccc(F)cc1Br (stereo not given) next.
Result: 56.5

###

Field: Activity. Provide a value for each of the molecules that follow.
molecular target: Core antigen (Hepatitis B virus) (UniProt Q03732); assay: Inhibition of capsid protein in HBV infected in human HepDES19 cells assessed as inhibition of viral replication by measuring minus polarity DNA level at 20 uM incubated for 3 days by strand preferential qPCR analysis relative to control; type: cell-based; design: scale not given: the % may be the effect or the level left; details: time 3.0 day
Please give a number only; it is taken to be in %.

Task: Name the reported Activity value associated with the molecule CCOC(=O)C1=C(CN2CCC3(CC2)CC(N)C3)NC(c2nccs2)=NC1c1ccc(F)cc1Br (centres undefined)
Result: 105

Task: Note, next up: CCOC(=O)C1=C(CN2CCC3(CCN(C(=O)OC(C)(C)C)C3)C2=O)NC(c2nccs2)=NC1c1ccc(F)cc1Br (centres undefined)
Result: 0.8

Task: And what about the molecule CCOC(=O)C1=C(CN2CCC3(CCNCC3)CC2)NC(c2nccs2)=NC1c1ccc(F)cc1Br (centres undefined) ?
Result: 97.7

Task: Queued: "CCOC(=O)C1=C(CN2CCOCC2)NC(c2nccs2)=N[C@H]1c1ccc(F)cc1Br"
Result: 22.6

###

Record form. Attribute: Activity. Fill in for each entry.
biological target: Core antigen (Hepatitis B virus); assay: Inhibition of capsid protein in HBV infected in human HepDES19 cells assessed as inhibition of viral replication by measuring minus polarity DNA level at 3 uM incubated for 3 days by strand preferential qPCR analysis relative to control; set-up: scale not given: the % may be the effect or the level left; details: time 3.0 day
Give the number; % is assumed, so skip it.

Task: Any idea what Activity was measured for CCOC(=O)C1=C(CN2CCC3(CCNCC3)C2)NC(c2nccs2)=NC1c1ccc(F)cc1Br (stereo not drawn) ?
Result: 69.9

Task: Moving on to the next compound: Nc1ccn([C@@H]2CS[C@H](CO)O2)c(=O)n1 [LAMIVUDINE]
Result: 79.1

Task: CCOC(=O)C1=C(CN2CCC3(CCN(C(=O)OC(C)(C)C)CC3)C2)NC(c2nccs2)=NC1c1ccc(F)cc1Br (stereo not drawn) , same question.
Result: 80.1

Task: Could you do the same for CCOC(=O)C1=C(CN2CCC3(CCN(C(=O)OC(C)(C)C)C3)C2)NC(c2nccs2)=NC1c1ccc(F)cc1Br (stereo not drawn) , please?
Result: 67.1

Task: Subsequent entry: CCOC(=O)C1=C(CN2CCC3(CNC3)C2)NC(c2nccs2)=NC1c1ccc(F)cc1Br (stereo not drawn)
Result: 84.5

Task: Would you kindly repeat that for CCOC(=O)C1=C(CN2CCC3(CCNCC3)CC2)NC(c2nccs2)=NC1c1ccc(F)cc1Br (stereo not drawn) ?
Result: 67.1

Task: How about this compound: CCOC(=O)C1=C(CN2CCC3(CC2)CC(N)C3)NC(c2nccs2)=NC1c1ccc(F)cc1Br (stereo not drawn)
Result: 69.9

Task: Check CCOC(=O)C1=C(CN2CC3(CNC3)C2)NC(c2nccs2)=NC1c1ccc(F)cc1Br (stereo not drawn) too.
Result: 85.9

Task: Can you check CCOC(=O)C1=C(CN2CCC3(CC2)CNC3)NC(c2nccs2)=NC1c1ccc(F)cc1Br (stereo not drawn) next?
Result: 70.8

Task: And what about the compound CCOC(=O)C1=C(CN2CCC3(C2)CN(C(=O)OC(C)(C)C)C3)NC(c2nccs2)=NC1c1ccc(F)cc1Br (stereo not drawn) ?
Result: 85.3

Task: Same read-out for CCOC(=O)C1=C(CN2CC3(C2)CN(C(=O)OC(C)(C)C)C3)NC(c2nccs2)=NC1c1ccc(F)cc1Br (stereo not drawn) ?
Result: 85.7

Task: Cool, now CCOC(=O)C1=C(CN2CCC3(CCNC3)CC2)NC(c2nccs2)=NC1c1ccc(F)cc1Br (stereo not drawn)
Result: 72.5

Task: Next compound up: CCOC(=O)C1=C(CN2CCC3(CC2)CC(NC(=O)OC(C)(C)C)C3)NC(c2nccs2)=NC1c1ccc(F)cc1Br (stereo not drawn)
Result: 97.2

###

biological target: Core antigen (Hepatitis B virus) (UniProt Q03732); assay: Inhibition of capsid protein in HBV infected in human HepDES19 cells assessed as inhibition of viral replication by measuring plus polarity DNA level at 3 uM incubated for 3 days by strand preferential qPCR analysis relative to control; set-up: scale not given: the % may be the effect or the level left; conditions: time 3.0 day
measurement-type: Activity (%)
Reply numerically in %, unit not repeated.

Task: I would be grateful if you could share the reported Activity for Nc1ccn([C@@H]2CS[C@H](CO)O2)c(=O)n1 [LAMIVUDINE] .
Result: 23.9

Task: Input CCOC(=O)C1=C(CN2CCC3(CC2)CC(=O)NC3=O)NC(c2nccs2)=NC1c1ccc(F)cc1Br (stereo not given)
Result: 18.9

Task: Further, for CCOC(=O)C1=C(CN2CCC3(CC(=O)N(Cc4ccccc4)C3=O)C2)NC(c2nccs2)=NC1c1ccc(F)cc1Br (stereo not given) ?
Result: 3

Task: Now this one: CCOC(=O)C1=C(CN2CCC3(CCN(C(=O)OC(C)(C)C)C3)C2=O)NC(c2nccs2)=NC1c1ccc(F)cc1Br (stereo not given)
Result: 3.3

Task: Field entry: CCOC(=O)C1=C(CN2CCC3(CC2)CNC(=O)C3)NC(c2nccs2)=NC1c1ccc(F)cc1Br (stereo not given)
Result: 3.4

Task: Item: CCOC(=O)C1=C(CN2CCC3(CC2)OCCO3)NC(c2nccs2)=NC1c1ccc(F)cc1Br (stereo not given)
Result: 3.8

Task: Also need CCOC(=O)C1=C(CN2CCC3(CC2)CNC3=O)NC(c2nccs2)=NC1c1ccc(F)cc1Br (stereo not given) , thanks.
Result: 2.7

Task: Further, for CCOC(=O)C1=C(CN2CC3(CCN(C(=O)OC(C)(C)C)C3)CC2=O)NC(c2nccs2)=NC1c1ccc(F)cc1Br (stereo not given) ?
Result: 2.7

Task: # repeat for CCOC(=O)C1=C(CN2CC3(CC2=O)CN(C(=O)OC(C)(C)C)C3)NC(c2nccs2)=NC1c1ccc(F)cc1Br (stereo not given)
Result: 2.4

Task: Could you do the same for CCOC(=O)C1=C(CN2CCC3(CNC(=O)C3)C2)NC(c2nccs2)=NC1c1ccc(F)cc1Br (stereo not given) , please?
Result: 2.8

###

target: Core antigen (Hepatitis B virus); assay: Inhibition of capsid protein in HBV infected in human HepDES19 cells assessed as inhibition of viral replication by measuring minus polarity DNA level at 5 uM incubated for 3 days by strand preferential qPCR analysis relative to control; assay type: cell-based; design: scale not given: the % may be the effect or the level left; details: time 3.0 day
I'd appreciate it if you could supply Activity values for the items below.
Only the number, expressed in %, is required.

Task: Notebook: pull reported Activity for Core antigen (Hepatitis B virus), entry CCOC(=O)C1=C(CN2CCC3(CNC(=O)C3)C2)NC(c2nccs2)=NC1c1ccc(F)cc1Br (stereo not given)
Result: 2.3

Task: # iterate: CCOC(=O)C1=C(CN2CC3(CCN(C(=O)OC(C)(C)C)C3)CC2=O)NC(c2nccs2)=NC1c1ccc(F)cc1Br (stereo not given)
Result: 2.9

Task: Let us now turn to CCOC(=O)C1=C(CN2CCC3(CC2)CNC(=O)C3)NC(c2nccs2)=NC1c1ccc(F)cc1Br (stereo not given)
Result: 4

Task: Moving on to CCOC(=O)C1=C(CN2CC3(CC2=O)CN(C(=O)OC(C)(C)C)C3)NC(c2nccs2)=NC1c1ccc(F)cc1Br (stereo not given)
Result: 2.5

Task: What about CCOC(=O)C1=C(CN2CCC3(CCN(C(=O)OC(C)(C)C)C3)C2=O)NC(c2nccs2)=NC1c1ccc(F)cc1Br (stereo not given) ?
Result: 2.9

Task: Also CCOC(=O)C1=C(CN2CCC3(CC(=O)N(Cc4ccccc4)C3=O)C2)NC(c2nccs2)=NC1c1ccc(F)cc1Br (stereo not given) , if possible.
Result: 2.8

Task: Consider next the compound CCOC(=O)C1=C(CN2CCC3(CC2)OCCO3)NC(c2nccs2)=NC1c1ccc(F)cc1Br (stereo not given) in the same way.
Result: 3.1

Task: Repeat with CCOC(=O)C1=C(CN2CCC3(CC2)CC(=O)NC3=O)NC(c2nccs2)=NC1c1ccc(F)cc1Br (stereo not given)
Result: 21.1

Task: Now this one: CCOC(=O)C1=C(CN2CCC3(CC2)CNC3=O)NC(c2nccs2)=NC1c1ccc(F)cc1Br (stereo not given)
Result: 3.4

Task: Subsequent entry: CCOC(=O)C1=C(CN2CCC3(CCNC3=O)CC2)NC(c2nccs2)=NC1c1ccc(F)cc1Br (stereo not given)
Result: 44.1
